Source of measurements: PubChem BioAssay (NCI)

- Test system: HL-60(TB) leukemia
- assay_text: NCI tumour cell line growth inhibition, 48 h
Measured GI50 accompanies every entry in the list below.
experimental_endpoint: GI50

smiles_str=CCN(Cc1c(F)cccc1F)c1ccc(CO)c(Cl)c1 experimental_endpoint=GI50 result="3.1 µM"
smiles_str=NCCN1CCN(c2nccc(-c3ccc4ccccc4c3)n2)CC1 experimental_endpoint=GI50 result="2.23 µM"
smiles_str=CCOC(=O)[C@@H](C)C[C@H](Cc1ccccc1)NC(=O)c1csc([C@@H](C[C@H](C(C)C)N(C)C(=O)[C@@H](NC(=O)[C@H]2CCCCN2C)C(C)(C)C)OC(C)=O)n1 experimental_endpoint=GI50 result="< 0.00167 µM"
smiles_str=O=C(N/N=C/c1ccc(Cl)cc1Cl)c1ccccc1Nc1cccc(C(F)(F)F)c1 experimental_endpoint=GI50 result="79 µM"
smiles_str=CCCNCc1cc(C)cc2c1nc(N1CCNCC1)n2Cc1cc(C)c(F)c(C)c1 experimental_endpoint=GI50 result="1.76 µM"
smiles_str=CNC(=O)c1ccc(-c2cnc3ncc(Cc4ccc5ncccc5c4)n3n2)cc1F experimental_endpoint=GI50 result="> 100 µM"
smiles_str=CCn1c(-c2nonc2N)nc2ccc(F)cc21 experimental_endpoint=GI50 result="> 25 µM"
smiles_str=N#Cc1c(-c2ccccc2)nc2c(c(-c3ccccc3)nn2-c2ccccc2)c1-c1ccc(O)cc1 experimental_endpoint=GI50 result="3.52 µM"
smiles_str=CCCS(=O)(=O)c1nc(NC2CC2)cc(-c2ccc3c(ccn3C3CC(C)(C)NC(C)(C)C3)c2)n1 experimental_endpoint=GI50 result="1.75 µM"

---

- System: OVCAR-3 ovarian
- assay_text: NCI tumour cell line growth inhibition, 48 h; in the data active = GI50 below about 0.43 µM; inactive = the rest
Possible outcomes: active, inactive

compound="CC(=O)n1c(-c2ccc(Cl)cc2)nc2c(c1=O)C(c1ccc(Cl)cc1)c1sc3c(Cl)cccc3c1O2 (stereo unspecified)" assigned_category=active
compound=C=CC(=O)Nc1cccc(Nc2nc(Nc3ccc(OCCOC)cc3)ncc2F)c1 assigned_category=inactive
compound="COCC(=O)OC1CCn2c1nc1c2C(=O)C(C)=C(NC(C)=O)C1=O (stereo unspecified)" assigned_category=inactive
compound=NCCN1CCN(c2nccc(-c3ccc4ccccc4c3)n2)CC1 assigned_category=inactive
compound=Cc1ccc2/c(=C/c3ccc(N(C)C)cc3)c3cc(-c4ccccc4)[n+](C)n3c2c1 assigned_category=inactive
compound="Cc1ccc(C(=O)CC(Sc2cccc(Cl)c2Cl)c2ccc(Cl)cc2)cc1C (stereo unspecified)" assigned_category=inactive
compound=COc1ccc(-c2cc(-c3cc(Cl)ccc3Cl)nc3nc(=S)[nH]c(N)c23)cc1 assigned_category=inactive
compound=O=C(Nc1cc(-c2ccccc2)[nH]n1)c1ccc(Cl)cc1 assigned_category=inactive
compound=CN1CCN(Cc2ccc(NC(=O)c3ccc(C(C)(C)C)c(C#Cc4cnc5cccnn45)c3)cc2C(F)(F)F)CC1 assigned_category=inactive
compound=c1cc[c]([Sn]([S]c2cccc3cccnc23)([c]2ccccc2)[c]2ccccc2)cc1 assigned_category=active
compound=CS(=O)(=O)Nc1ccc(-c2ccc3c(NC(=O)C4CC4)n[nH]c3c2)cc1 assigned_category=inactive

---

Measured TGI accompanies every entry in the list below.
- Tested on: SK-MEL-28 melanoma
- assay_text: NCI tumour cell line growth inhibition, 48 h
experimental_endpoint: TGI

molecule=CCN(CC)CCCNc1ccc([N+](=O)[O-])c2nc3ccc(OC)cc3c(NCCCN(CC)CC)c12 system_tested="SK-MEL-28 melanoma" experimental_endpoint=TGI result="> 10 µM"
molecule=Nc1nc(Nc2ccc(OCc3cccc(F)c3)cc2)c2c(n1)[nH]c1ccc(O)cc12 system_tested="SK-MEL-28 melanoma" experimental_endpoint=TGI result="5.59 µM"
molecule="CC1=CCC[C@H]2[C@](C)(CC3=CC(=O)C4SCCSC4C3=O)[C@@H](C)CC[C@]12C (some centres undefined)" system_tested="SK-MEL-28 melanoma" experimental_endpoint=TGI result="38.4 µM"
molecule=O=C(O)c1cc2ccccc2c(S(=O)(=O)O)c1O system_tested="SK-MEL-28 melanoma" experimental_endpoint=TGI result="> 100 µM"
molecule=COc1cc(-c2cn(C)c(=O)c(C)c2C)cc(OC)c1CN1CC[C@H](N2CCN(c3ccc(N[C@H]4CCC(=O)NC4=O)cc3F)CC2)C(F)(F)C1 system_tested="SK-MEL-28 melanoma" experimental_endpoint=TGI result="30.9 µM"
molecule="COc1cc(CCCOC2OC(COC3OCC(O)C(O)C3O)C(O)C(O)C2O)cc2cc(-c3ccc4c(c3)OCO4)oc12 (centres undefined)" system_tested="SK-MEL-28 melanoma" experimental_endpoint=TGI result="> 175 µM"
molecule=CCCSc1cc(Cl)nc(N)n1 system_tested="SK-MEL-28 melanoma" experimental_endpoint=TGI result="> 100 µM"
molecule=Brc1ccc2c(c1)-c1nc3c(cc1CC2)CCc1ccc(Br)cc1-3 system_tested="SK-MEL-28 melanoma" experimental_endpoint=TGI result="> 100 µM"
molecule=O=C(CN=C(CN(c1ccccc1)c1ccccc1)Oc1c(Cl)cc(Cl)cc1Cl)n1cnc2ccccc21 system_tested="SK-MEL-28 melanoma" experimental_endpoint=TGI result="> 100 µM"

---

- Test system: NCI-H23 lung
- assay_text: NCI tumour cell line growth inhibition, 48 h
experimental_endpoint: log10 of TGI (log10 of the value in µM)

molecule="COCC(=O)OC1CCn2c1nc1c2C(=O)C(C)=C(NC(C)=O)C1=O (stereo not given)" system_tested="NCI-H23 lung" experimental_endpoint="log10 of TGI" numeric_readout=1.35
molecule=Oc1ccc(Cc2ccccc2)c2cccnc12 system_tested="NCI-H23 lung" experimental_endpoint="log10 of TGI" numeric_readout=1.76
molecule=CCN(Cc1c(F)cccc1F)c1ccc(CO)c(Cl)c1 system_tested="NCI-H23 lung" experimental_endpoint="log10 of TGI" numeric_readout=1.76
molecule="CC1=CCC[C@H]2[C@](C)(CC3=CC(=O)C4SCCSC4C3=O)[C@@H](C)CC[C@]12C (stereo not given in full)" system_tested="NCI-H23 lung" experimental_endpoint="log10 of TGI" numeric_readout=1.50
molecule="c1ccc2c(c1)N=C(c1cccc3ccccc13)CC(c1cccc3ccccc13)S2 (stereo not given)" system_tested="NCI-H23 lung" experimental_endpoint="log10 of TGI" numeric_readout=1.10
molecule=O=C1c2ccccc2-c2c1c1ccccc1c(=O)n2CCNCCCNCCn1c2c(c3ccccc3c1=O)C(=O)c1ccccc1-2 system_tested="NCI-H23 lung" experimental_endpoint="log10 of TGI" numeric_readout=0.05

---

- Tested on: OVCAR-8 ovarian
- assay_text: NCI tumour cell line growth inhibition, 48 h
experimental_endpoint: TGI

compound=O=CN(O)CC(=O)O system_tested="OVCAR-8 ovarian" experimental_endpoint=TGI result="> 100 µM"
compound="O=C1NN=C(c2c[nH]c3ccccc23)CC1NCc1ccccc1 (stereo not drawn)" system_tested="OVCAR-8 ovarian" experimental_endpoint=TGI result="> 100 µM"
compound="COC1OC2COC(C)(C)OC2C2OC(C)(C)OC12 (stereo not drawn)" system_tested="OVCAR-8 ovarian" experimental_endpoint=TGI result="> 100 µM"
compound="COc1ccc(C(=O)C(C(=O)CCC(=O)Nc2cccc(C(F)(F)F)c2)c2ccccc2)cc1 (stereo not drawn)" system_tested="OVCAR-8 ovarian" experimental_endpoint=TGI result="> 100 µM"
compound="CC1(C)[C@@H]2C[C@H]1c1cnc(-c3ccccn3)cc1[C@H]2C(O)[C@@H]1c2cc(-c3ccccn3)ncc2[C@H]2C[C@@H]1C2(C)C (stereo partly drawn)" system_tested="OVCAR-8 ovarian" experimental_endpoint=TGI result="3.1 µM"
compound="COC(=O)NC/C=C\\c1nc(CC/C=C\\C(=O)OC2CC3CC(=O)O[C@@H](/C=C/CC(C)C)C[C@@H]4CCC(C)C(C[C@@H](OC)CC(C2)O3)O4)co1 (stereo partly drawn)" system_tested="OVCAR-8 ovarian" experimental_endpoint=TGI result="> 100 µM"
compound=CN(C)c1nc(=NCc2ccccn2)ss1 system_tested="OVCAR-8 ovarian" experimental_endpoint=TGI result="> 10 µM"
compound=Cc1ccc(-c2nc(C(Cl)Cl)n3nc(-c4ccccc4)cc3n2)cc1 system_tested="OVCAR-8 ovarian" experimental_endpoint=TGI result="> 100 µM"

---

Measured TGI accompanies every entry in the list below.
- Tested on: OVCAR-5 ovarian
- assay_text: NCI tumour cell line growth inhibition, 48 h
experimental_endpoint: TGI

compound=COc1cc2c(cc1OCCCOc1cc3c(cc1OC)C(=O)N1CCC[C@H]1CN3)N=C[C@@H]1CCCN1C2=O result="1.32 µM"
compound="COc1cc(CCCOC2OC(COC3OCC(O)C(O)C3O)C(O)C(O)C2O)cc2cc(-c3ccc4c(c3)OCO4)oc12 (stereo unspecified)" result="> 175 µM"
compound=Cc1ncc(NC(=O)c2ccc(CN3CCN(C)CC3)c(C(F)(F)F)c2)cc1Nc1nccc(-c2cccnc2)n1 result="29.7 µM"
compound=c1ccc(-c2ccc(N=NN3CCCC3)cc2)cc1 result="> 100 µM"
compound=CCCNCc1cc(C)cc2c1nc(N1CCNCC1)n2Cc1cc(C)c(F)c(C)c1 result="22.3 µM"
compound=O=c1oc2ccccc2c2nc3ccccc3cc12 result="> 100 µM"
